- System: OVCAR-4 ovarian
- assay_summary: NCI tumour cell line growth inhibition, 48 h
For each entry below, report its GI50 value.

Q) Would you kindly share the measured GI50 for "Cn1cc(C2=C(c3cn(C)c4c([N+](=O)[O-])cccc34)C(=O)NC2=O)c2ccccc21" ?
A) > 25 µM

Q) Would you kindly share the measured GI50 for "O=C1c2ccccc2S(=O)(=O)N1CSC(=S)N1CCCCC1" ?
A) > 100 µM

Q) Would you kindly share the measured GI50 for "Cc1cc(O)ccc1C1=NN(c2ccc(S(C)(=O)=O)cc2)C(=O)CC1" ?
A) 76.9 µM

Q) Would you kindly share the measured GI50 for "Cc1ccccc1-n1ncc(C(=O)c2ccccc2)c1N" ?
A) > 25 µM

Q) Would you kindly share the measured GI50 for "O=C1Nc2c(C(F)(F)F)cccc2[C@@]1(c1ccc(O)cc1)c1ccc(OC(F)(F)F)cc1" ?
A) < 0.01 µM

Q) Would you kindly share the measured GI50 for "COc1ccc(C(=O)c2cc(OC)c(OC)c(OC)c2)cc1/C=C/C(=O)c1ccc(OC)c(OC)c1" ?
A) 1.95 µM

----------
For each entry below, report its TGI value.
- Tested on: MDA-MB-231 breast
- assay_summary: NCI tumour cell line growth inhibition, 48 h

Q) Would you kindly share the measured TGI for "O=C(O)c1cc(/C=C/c2cc(O)ccc2O)ccc1O" ?
A) > 10 µM

Q) Would you kindly share the measured TGI for "COc1ccc(C(=O)c2cc(OC)c(OC)c(OC)c2)cc1/C=C/C(=O)c1ccc(OC)c(OC)c1" ?
A) > 100 µM

Q) Would you kindly share the measured TGI for CC(=O)NC(CCC(=O)C=[N+]=N)C(=O)O (stereo not drawn) ?
A) > 100 µM

----------
For each entry below, report its GI50 value.
- Test system: DU-145 prostate
- assay_summary: NCI tumour cell line growth inhibition, 48 h

Q) Would you kindly share the measured GI50 for "CCCCCCCCN(CCCCCCCC)CCCCCCNc1cc(OC)cc2cccnc12" ?
A) 2100 nM

Q) Would you kindly share the measured GI50 for "O=[N+]([O-])c1ccccc1N/N=C\c1c[nH]c2ccccc12" ?
A) 27600 nM

Q) Would you kindly share the measured GI50 for NC1CCC(Nc2nc(NCc3ccc(-c4cccs4)nc3)c3ncn(C4CCCC4)c3n2)CC1 (stereo not given) ?
A) 93.3 nM

Q) Would you kindly share the measured GI50 for "Nc1nc2c(s1)CCc1c-2c(Br)n(Cc2ccccc2)c1Br" ?
A) 16100 nM

Q) Would you kindly share the measured GI50 for "O=C1Nc2c(C(F)(F)F)cccc2[C@@]1(c1ccc(O)cc1)c1ccc(OC(F)(F)F)cc1" ?
A) 30.3 nM

----------
- System: NCI-H460 lung
- assay_summary: NCI tumour cell line growth inhibition, 48 h
For each entry below, report its TGI value.

Q) Would you kindly share the measured TGI for "CCOC(=O)c1c(C)n2c(=O)cc(C)c3c(O)c(O)cc1c32" ?
A) > 100 µM

Q) Would you kindly share the measured TGI for "Cl.Fc1c[c-]c(-c2ccccn2)c(F)c1.[Pt].c1ccc(P(c2ccccc2)C([PH+](c2ccccc2)c2ccccc2)[PH+](c2ccccc2)c2ccccc2)cc1" ?
A) 11.5 µM

Q) Would you kindly share the measured TGI for "C=C(C)[C@@H]1CC[C@]2(C(=O)O)CC[C@]3(C)[C@H](CC[C@@H]4[C@@]5(C)C[C@@H](CC#Cc6ccc(C(F)(F)F)cc6)[C@H](O)C(C)(C)[C@@H]5CC[C@]43C)[C@@H]12" ?
A) > 100 µM

Q) Would you kindly share the measured TGI for "Cc1ccccc1-n1ncc(C(=O)c2ccccc2)c1N" ?
A) > 25 µM

Q) Would you kindly share the measured TGI for "CCN(CC)CCNC(=O)c1cc2cc(NC(=O)c3cc4cc(NC(=O)c5cc6cc(N)ccc6[nH]5)ccc4[nH]3)ccc2[nH]1" ?
A) > 100 µM

Q) Would you kindly share the measured TGI for "Cc1ncc2c(=O)c3c(oc2n1)c1ccccc1n3Cc1ccccc1" ?
A) > 100 µM

Q) Would you kindly share the measured TGI for COC(=O)C(Cc1cc(OC)c(OC)c(OC)c1)c1ccc(OC)cc1 (stereo unspecified) ?
A) > 100 µM

Q) Would you kindly share the measured TGI for "O=C1c2ccccc2S(=O)(=O)N1CSC(=S)N1CCCCC1" ?
A) > 100 µM

Q) Would you kindly share the measured TGI for CCOC(=O)C1C2CCC(C2)C1(CCl)C(=O)OCC (stereo unspecified) ?
A) > 100 µM

Q) Would you kindly share the measured TGI for "CN(C)S(=O)(=O)/N=C/c1cccc(/C=N/S(=O)(=O)N(C)C)c1" ?
A) > 100 µM

Q) Would you kindly share the measured TGI for "O=C1c2nsnc2C(=O)c2c(F)c(F)c(F)c(F)c21" ?
A) 2.34 µM

Q) Would you kindly share the measured TGI for "CCc1n[nH]c(=O)n1/N=C/c1ccc(C)cc1" ?
A) > 100 µM

Q) Would you kindly share the measured TGI for "Oc1ccc(N=C2CCC(=C(c3ccccc3)c3ccc(Nc4ccc(O)cc4)cc3)CC2)cc1" ?
A) > 100 µM

Q) Would you kindly share the measured TGI for "CCCCCCCCCCCCC[C@H](O)C[C@H](O)[C@H](C)N" ?
A) 3.87 µM

Q) Would you kindly share the measured TGI for "COc1cc(OC)c2nc(C)c3c(c2c1)NCC3" ?
A) 12 µM

Q) Would you kindly share the measured TGI for "CCCCCCCCN(CCCCCCCC)CCCCCCNc1cc(OC)cc2cccnc12" ?
A) 21.6 µM

Q) Would you kindly share the measured TGI for "C=C[C@@H]1C[C@]2(C(=O)OC)Cc3nc4ccccc4nc3CC(C(=O)OC)=C2O1" ?
A) > 100 µM

Q) Would you kindly share the measured TGI for "CCOC(=O)c1cnc2n(c1=N)[C@H]1CCCC[C@@H]1N2" ?
A) > 100 µM

Q) Would you kindly share the measured TGI for "Nc1nc(OCc2cc(Br)cs2)c2[nH]cnc2n1" ?
A) > 100 µM

Q) Would you kindly share the measured TGI for "COc1ccc(C(=O)COC(=O)[C@H](C[Se][Se]C[C@H](NC(=O)c2ccc(Br)cc2F)C(=O)OCC(=O)c2ccc(OC)cc2)NC(=O)c2ccc(Br)cc2F)cc1" ?
A) 1.31 µM

Q) Would you kindly share the measured TGI for "c1ccc(-n2nc3ccc4nonc4c3n2)cc1" ?
A) > 100 µM

Q) Would you kindly share the measured TGI for "COC1CCN(C(=O)c2cc(Cc3n[nH]c(=O)c4ccccc34)ccc2F)CC1" ?
A) > 100 µM

Q) Would you kindly share the measured TGI for "c1ccc(CNCCCCNCCCNCc2ccccc2)cc1" ?
A) 30.2 µM

Q) Would you kindly share the measured TGI for CC(NC(=O)C(N)CC(=O)O)NC(=O)C1CCC1 (stereo unspecified) ?
A) > 100 µM

Q) Would you kindly share the measured TGI for "Oc1ccc(O)c(-c2cn3ccsc3n2)c1" ?
A) 31.4 µM

Q) Would you kindly share the measured TGI for CCCCC(Sc1cc(Cl)c(C)cc1S(=O)(=O)Nc1n[nH]c(N)n1)C(=O)OC (stereo unspecified) ?
A) > 10 µM

Q) Would you kindly share the measured TGI for "C[n+]1c(-c2ccc(/C=N/NC(=O)C(=O)N/N=C/c3ccc(-c4cn5ccsc5[n+]4C)cc3)cc2)cn2ccsc21" ?
A) > 100 µM

Q) Would you kindly share the measured TGI for "COC1=CCC=C(C[C@@H]2NCCc3cc(OC)c(OC)cc32)C1" ?
A) > 100 µM

Q) Would you kindly share the measured TGI for COc1ccc(C2CC(c3cc(C)ccc3O)=NC(N)=N2)cc1 (stereo unspecified) ?
A) > 100 µM

Q) Would you kindly share the measured TGI for "Clc1ccc2c(c1)N(c1ncnc3ccc(-c4cnc5[nH]ccc5c4)cc13)CC2" ?
A) 12.4 µM

Q) Would you kindly share the measured TGI for "CC(=O)Nc1cc2c3c(c1)CCCN3CCC2" ?
A) > 100 µM

----------
- Tested on: SF-295 CNS
- assay_summary: NCI tumour cell line growth inhibition, 48 h
For each entry below, report its log10(TGI) value.
Response schema: value (number) is log10 of TGI in units of µM.

Q) Lookup: log10(TGI) / SF-295 CNS / "CCCCCCCCCCCCCC1=NCCN1CCO"
A) 0.79

Q) Lookup: log10(TGI) / SF-295 CNS / "O=C(N/N=C/c1cc(Cl)cc(Cl)c1[O-])c1ccccc1O.O=C(N/N=C/c1cc(Cl)cc(Cl)c1[O-])c1ccccc1O.[Zn+2]"
A) 0.72

Q) Lookup: log10(TGI) / SF-295 CNS / O=C(c1ccccc1)[C@H]1Nc2ccc(Cl)cc2C2c3ccccc3CC21 (stereo not given in full)
A) 1.83

Q) Lookup: log10(TGI) / SF-295 CNS / "Clc1ccc2c(c1)N(CCCN1CCCC1)c1ccccc1S2"
A) 1.33

Q) Lookup: log10(TGI) / SF-295 CNS / CC(=O)OC1CCCn2c1nc1c2C(=O)C(C)=C(N2CC2)C1=O (stereo not given)
A) -0.18
